Reported peptide exchange yield values for the following binders.
Target: T1, HLA-A*02:01 (human)
T1 construct: captured on streptavidin plates; also called peptide-receptive MHC molecules
Assay: UV peptide exchange ELISA (anti-b2m); yield grade: + >10%, ++ >20%, +++ >50, ++++ >75%

As a guide, the following entries are already answered.
>  <binder>
GLVDVLYTA

>  <measured.property>
peptide exchange yield

>  <val>
50 to 75%

$$$$
>  <binder>
FMYNFQLVTL

>  <measured.property>
peptide exchange yield

>  <val>
20 to 50%

$$$$
>  <binder>
ELDKIYETL

>  <measured.property>
peptide exchange yield

>  <val>
10 to 20%

$$$$
>  <binder>
LLDMSLVKL

>  <measured.property>
peptide exchange yield

>  <val>
50 to 75%

$$$$
>  <binder>
SLADVVDTL

>  <measured.property>
peptide exchange yield

>  <val>
> 75%

$$$$

The binder listed as `YLDKTFYNL` shows peptide exchange yield equal to 50 to 75%

The binder listed as `SLPRPTPQA` shows peptide exchange yield equal to 50 to 75%

The binder listed as `IMEDFTTFL` shows peptide exchange yield equal to > 75%

The binder listed as `QLMEGKVVL` shows peptide exchange yield equal to > 75%

The binder listed as `LLDDPTNAHFI` shows peptide exchange yield equal to 50 to 75%

The binder listed as `NLDYAILKL` shows peptide exchange yield equal to 10 to 20%

The binder listed as `SIIPPLFTV` shows peptide exchange yield equal to > 75%
